Every entry's value here was drawn from patent US6741954B2.

assay: Headspace above the wet washed hair: relative partition parameter headspace/shampoo (SPME-GC); assay type: physicochemical; conditions: log of amount in headspace above wet washed hair relative to amount in shampoo; 1% odorant mixture, 3 h standing, SPME 15 min
# note: boundary value -1 maps to 0.0; Activity (logarithmic partition parameter above wet hair) below it maps to 1.0

Illustrative cases are given below, each with its answer.
>>> label("C=CCc1ccc(O)c(OC)c1")
1.0
>>> label("C[C@@H]1CC[C@H]2C(C)(C)[C@H]3C[C@@]12CC[C@@]3(C)O")
1.0
>>> label("OCc1ccccc1")
1.0

-- ask Consider the molecule C=C(C)[C@H]1CC=C(C)CC1 . Is its Activity (logarithmic partition parameter above wet hair) strictly less than -1?
-- reply 0.0

-- ask Consider the molecule OCCc1ccccc1 . Is its Activity (logarithmic partition parameter above wet hair) strictly less than -1?
-- reply 1.0

-- ask Consider the molecule CC(C)=CCC/C(C)=C/CO . Is its Activity (logarithmic partition parameter above wet hair) strictly less than -1?
-- reply 1.0

-- ask Consider the molecule CC(C)CCOC(=O)c1ccccc1O [Isoamyl salicylate] . Is its Activity (logarithmic partition parameter above wet hair) strictly less than -1?
-- reply 1.0
